I'd be grateful if you could share measured kcat/Km for these entries.
# Tested on: Klebsiella oxytoca
# experiment-summary: Kcat/Km ratio of Klebsiella oxytoca Beta-lactamase K1
State just the number; it will be interpreted in M⁻¹ s⁻¹.

Any idea what kcat/Km was measured for CC1(C)S[C@@H]2[C@H](NC(=O)Cc3ccccc3)C(=O)N2[C@H]1C(=O)O ?
2e+07

And then CC(C)(O/N=C(\C(=O)N[C@@H]1C(=O)N2C(C(=O)[O-])=C(C[n+]3ccccc3)CS[C@H]12)c1csc(N)n1)C(=O)O , what is it?
93

And then C[C@@H](O)[C@H]1C(=O)N2C(C(=O)O)=C(S[C@@H]3CN[C@H](CNS(N)(=O)=O)C3)[C@H](C)[C@H]12 , what is it?
150

And then C[C@@H](O)[C@H]1C(=O)N2C(C(=O)O)=C(S[C@@H]3CN[C@H](C(=O)N(C)C)C3)[C@H](C)[C@H]12 , what is it?
110

And then C[C@@H](O)[C@H]1C(=O)N2C(C(=O)O)=C(SCCNC=N)C[C@H]12 , what is it?
1800

And then O=C(Cc1cccs1)N[C@@H]1C(=O)N2C(C(=O)[O-])=C(C[n+]3ccccc3)CS[C@H]12 , what is it?
4.5e+06

----------
# assay-system: Beta-lactamase OXA-10 (Pseudomonas aeruginosa)
# experiment-summary: Activity of Pseudomonas aeruginosa OXA-10 relative to Cephaloridine
observation-type: Activity

Any idea what Activity was measured for CC(C)(O/N=C(\C(=O)N[C@@H]1C(=O)N2C(C(=O)[O-])=C(C[n+]3ccccc3)CS[C@H]12)c1csc(N)n1)C(=O)O ?
< 0.059%

And then CC1(C)S[C@@H]2[C@H](NC(=O)Cc3ccccc3)C(=O)N2[C@H]1C(=O)O , what is it?
540%

And then C[C@@H](O)[C@H]1C(=O)N2C(C(=O)O)=C(SCCNC=N)C[C@H]12 , what is it?
< 0.088%

And then C[C@@H](O)[C@H]1C(=O)N2C(C(=O)O)=C(S[C@@H]3CN[C@H](CNS(N)(=O)=O)C3)[C@H](C)[C@H]12 , what is it?
< 0.046%

And then C[C@@H](O)[C@H]1C(=O)N2C(C(=O)O)=C(S[C@@H]3CN[C@H](C(=O)N(C)C)C3)[C@H](C)[C@H]12 , what is it?
< 0.031%

----------
# assay-system: Beta-lactamase (Escherichia coli) (UniProt Q53TY8)
# experiment-summary: Kcat/Km ratio of Escherichia coli CMY-2 relative to Cephaloridine
Activity below 0.7% gives NO; Activity at or above it gives YES.

Answer whether Activity of CC1(C)S[C@@H]2[C@H](NC(=O)Cc3ccccc3)C(=O)N2[C@H]1C(=O)O is greater than or equal to 0.7%.
YES

And then C[C@@H](O)[C@H]1C(=O)N2C(C(=O)O)=C(S[C@@H]3CN[C@H](CNS(N)(=O)=O)C3)[C@H](C)[C@H]12 , what is it?
NO

And then O=C(Cc1cccs1)N[C@@H]1C(=O)N2C(C(=O)O)=C(/C=C/c3ccc([N+](=O)[O-])cc3[N+](=O)[O-])CS[C@H]12 , what is it?
YES

And then CC(C)(O/N=C(\C(=O)N[C@@H]1C(=O)N2C(C(=O)[O-])=C(C[n+]3ccccc3)CS[C@H]12)c1csc(N)n1)C(=O)O , what is it?
NO

And then C[C@@H](O)[C@H]1C(=O)N2C(C(=O)O)=C(S[C@@H]3CN[C@H](C(=O)N(C)C)C3)[C@H](C)[C@H]12 , what is it?
NO

----------
# assay-system: Beta-lactamase SHV-1 (Klebsiella pneumoniae)
# Sequence (whole entry): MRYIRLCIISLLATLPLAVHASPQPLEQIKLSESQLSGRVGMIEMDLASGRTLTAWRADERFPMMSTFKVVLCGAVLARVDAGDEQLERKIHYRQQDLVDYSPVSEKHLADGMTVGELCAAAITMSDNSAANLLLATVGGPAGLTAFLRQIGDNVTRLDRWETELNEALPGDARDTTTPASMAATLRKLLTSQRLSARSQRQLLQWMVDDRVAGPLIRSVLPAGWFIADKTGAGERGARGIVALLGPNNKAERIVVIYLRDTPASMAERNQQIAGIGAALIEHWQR
# experiment-summary: Kcat/Km ratio of Klebsiella pneumoniae SHV-1 relative to Cephaloridine
I'd be grateful if you could share measured Activity for these entries.
State just the number; it will be interpreted in %.

Any idea what Activity was measured for C[C@@H](O)[C@H]1C(=O)N2C(C(=O)O)=C(S[C@@H]3CN[C@H](CNS(N)(=O)=O)C3)[C@H](C)[C@H]12 ?
0.027

And then C[C@@H](O)[C@H]1C(=O)N2C(C(=O)O)=C(SCCNC=N)C[C@H]12 , what is it?
0.092

And then C[C@@H](O)[C@H]1C(=O)N2C(C(=O)O)=C(S[C@@H]3CN[C@H](C(=O)N(C)C)C3)[C@H](C)[C@H]12 , what is it?
0.015

And then CC(C)(O/N=C(\C(=O)N[C@@H]1C(=O)N2C(C(=O)[O-])=C(C[n+]3ccccc3)CS[C@H]12)c1csc(N)n1)C(=O)O , what is it?
0.00077

----------
# assay-system: Carbapenem-hydrolyzing beta-lactamase KPC (Klebsiella pneumoniae) (UniProt Q9F663)
# experiment-summary: Kcat/Km ratio of Klebsiella pneumoniae KPC-2 relative to Cephaloridine
observation-type: Activity (%)
State just the number; it will be interpreted in %.

Any idea what Activity was measured for CC1(C)S[C@@H]2[C@H](NC(=O)Cc3ccccc3)C(=O)N2[C@H]1C(=O)O ?
260

And then C[C@@H](O)[C@H]1C(=O)N2C(C(=O)O)=C(SCCNC=N)C[C@H]12 , what is it?
45

And then C[C@@H](O)[C@H]1C(=O)N2C(C(=O)O)=C(S[C@@H]3CN[C@H](C(=O)N(C)C)C3)[C@H](C)[C@H]12 , what is it?
37

And then C[C@@H](O)[C@H]1C(=O)N2C(C(=O)O)=C(S[C@@H]3CN[C@H](CNS(N)(=O)=O)C3)[C@H](C)[C@H]12 , what is it?
45

And then CC(C)(O/N=C(\C(=O)N[C@@H]1C(=O)N2C(C(=O)[O-])=C(C[n+]3ccccc3)CS[C@H]12)c1csc(N)n1)C(=O)O , what is it?
0.22

----------
# assay-system: Beta-lactamase IMP-1 (Pseudomonas aeruginosa) (UniProt Q8G9Q0)
# experiment-summary: Activity of Pseudomonas aeruginosa IMP-1 relative to Cephaloridine
observation-type: Activity
Hi, when you answer, please include the unit after the number. Thanks!

Any idea what Activity was measured for C[C@@H](O)[C@H]1C(=O)N2C(C(=O)O)=C(SCCNC=N)C[C@H]12 ?
70%

And then CC(C)(O/N=C(\C(=O)N[C@@H]1C(=O)N2C(C(=O)[O-])=C(C[n+]3ccccc3)CS[C@H]12)c1csc(N)n1)C(=O)O , what is it?
14%

And then CC1(C)S[C@@H]2[C@H](NC(=O)Cc3ccccc3)C(=O)N2[C@H]1C(=O)O , what is it?
520%

And then C[C@@H](O)[C@H]1C(=O)N2C(C(=O)O)=C(S[C@@H]3CN[C@H](C(=O)N(C)C)C3)[C@H](C)[C@H]12 , what is it?
9.6%

And then C[C@@H](O)[C@H]1C(=O)N2C(C(=O)O)=C(S[C@@H]3CN[C@H](CNS(N)(=O)=O)C3)[C@H](C)[C@H]12 , what is it?
41%

----------
I'd be grateful if you could share measured Activity for these entries.
# assay-system: Beta-lactamase (Pseudomonas aeruginosa (strain ATCC 15692 / PAO1 / 1C / PRS 101 / LMG12228)) (UniProt P24735)
# experiment-summary: Activity of Pseudomonas aeruginosa AmpC relative to Cephaloridine

Any idea what Activity was measured for C[C@@H](O)[C@H]1C(=O)N2C(C(=O)O)=C(SCCNC=N)C[C@H]12 ?
< 0.031%

And then C[C@@H](O)[C@H]1C(=O)N2C(C(=O)O)=C(S[C@@H]3CN[C@H](C(=O)N(C)C)C3)[C@H](C)[C@H]12 , what is it?
< 0.0063%

And then C[C@@H](O)[C@H]1C(=O)N2C(C(=O)O)=C(S[C@@H]3CN[C@H](CNS(N)(=O)=O)C3)[C@H](C)[C@H]12 , what is it?
< 0.0063%

And then CC1(C)S[C@@H]2[C@H](NC(=O)Cc3ccccc3)C(=O)N2[C@H]1C(=O)O , what is it?
46%

And then O=C(Cc1cccs1)N[C@@H]1C(=O)N2C(C(=O)O)=C(/C=C/c3ccc([N+](=O)[O-])cc3[N+](=O)[O-])CS[C@H]12 , what is it?
160%

Where do the numbers come from? From ChEMBL document CHEMBL1212772.
